experimentalProtocol: A549 cell viability effects, profiling panel, calcein-AM fluorescence, 48 h, basal (AID 1162); also: test concentration not given here
setupConditions: higher = more signal
quantity: z-score
The reply should be a number, written without any unit.

compound	z-score
COC(=O)c1ccc([C@H](NC(=O)c2ccccc2)[C@]2(C)C[C@H]2C2CCCCC2)cc1	-0.844
COC(=O)C1=CC(CCCO)=CC(C2CC2)N(Cc2cccc(OC(F)(F)F)c2)C=C1C(=O)OC (configuration not stated)	-0.851
N#Cc1ccc(C(O)C2C=CC3C(=O)N(c4ccccc4)C(=O)C3N2Nc2ccc([N+](=O)[O-])cc2)cc1 (configuration not stated)	-0.211

The compound C=CCC(OC(C)=O)[C@@H]1[C@@H](N(Cc2ccc(-c3cccc(C(F)(F)F)c3)o2)C(=O)c2cccc3ccccc23)c2cc(OCCCO)ccc2N1C(=O)c1ccc2ccccc2n1 (some centres not stated) showed z-score equal to -0.16

The recorded z-score for entry Cc1ccc(S(=O)(=O)N2[C@@H](c3ccccc3)C(C(=O)O)=CC[C@H]2c2ccc(C#N)cc2)cc1 equals -0.283

Reported z-score for CC(C)C[C@@H]1NC(=O)C([C@@H](C)OCc2ccccc2)NC(=O)[C@@]23C(=O)N[C@@H](Cc4ccccc4)C2[C@H](C)[C@@]2(C)O[C@H]2C3/C=C/CC/C=C/CNC1=O (some centres not stated) was -0.638

response.value for CCCCC(=C=CC[C@@H](O)c1cccc(OCCO)c1)CCO (field: z-score) = 1.58

Sure, the documented z-score for O=C1N(Cc2ccccc2)c2ccccc2[C@H]2OC(c3ccc(OCCCO)cc3)=N[C@@]12Cc1ccccc1 is -1.22

Field z-score (entry CC=CC(O)C1C=CC2C(=O)N(C)C(=O)C2N1NC(=O)OC(C)(C)C (configuration not stated) ) reads -0.73

Reported z-score for COC(=O)c1c(CC[C@@H](CO)NC(=O)N[C@@H](Cc2ccccc2)Cn2cc(-c3cncn3C)nn2)oc(C(C)=O)c1C(=O)OC was -0.184

Data point: Cc1ccc(F)cc1S(=O)(=O)N[C@@H]1CCN(Cc2ccc3[nH]ccc3c2)C1 ; z-score = 0.173

Per the records, this compound ( CC(C)=CCN(C(=O)C#Cc1ccccc1)[C@H](CO)c1ccccc1 ) has z-score equal to -3.88

// COC(=O)[C@@]1(Cc2ccc(OC)cc2)[C@H]2c3cc(C(=O)N(C)C)n(Cc4ccsc4Br)c3C[C@H]2CN1C(=O)c1ccccc1 : z-score value = -0.299

Briefly, z-score measured for CCC[C@@H]1C=C(C(=O)OCC)[C@H](c2ccccc2)N1S(=O)(=O)c1ccc(C)cc1 : -1.78

The compound identified as COC(=O)C1=CC(CCCO)=CC(c2ccc(CN3CCCC3)cc2)N(Cc2sc3ccccc3c2Cl)C=C1C(=O)OC (configuration not stated) registered its z-score at 1.38

In plain terms, CCCCCN1CC=CC23O[C@@H]4C=CCOC(=O)[C@@H]4[C@H]2C(=O)N(CCCCCO)[C@@H]3C1=O (some centres not stated) has a documented z-score of -0.438

In plain terms, CN1C(=O)C2C(C1=O)C1C=C(c3ccc(CO)cc3)C2C(c2cccs2)N1C (configuration not stated) has a documented z-score of -0.0148

---

Attribute: composite z-score
experimentalProtocol: binders of probe aFGF2 on microarray, primary screen, stem cell growth factor project, biochemical, small-molecule microarray, fluorescence 635/667 (AID 1067);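 also: measures binding of biotinylated aFGF2 protein to printed compounds on slides; z-score merges feature fluorescence and signal-to-noise across triplicate slides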
setupConditions: higher = more signal
Answer with a number only.

molecule	composite z-score
C=C(C(=O)CC[C@@H](OC(C)=O)c1cccc(OCCO)c1)C(C)C	-0.0996

In plain terms, O=C(NCCO)C1=C[C@H](Oc2ccccc2I)[C@@H](O)[C@H](NCc2ccc(F)cc2)C1 has a documented composite z-score of -0.145

According to the records, this molecule CC(c1ccccc1)C(O)C1C=CC2C(=O)N(c3ccccc3)C(=O)C2N1Nc1ccc(C#N)cc1 (stereo not given) displays composite z-score of 0.255

molecule COCCOC(=O)N1C(=O)[C@@]2(c3cc(C#CCCO)ccc31)[C@H](c1ccccc1OCCO)N1[C@H](c3ccccc3)[C@H](c3ccccc3)OC(=O)[C@H]1[C@@H]2C(=O)N1CCc2cc(OC)c(OC)cc2C1 , composite z-score observed: 0.022

Lab note: COc1cccc(OC)c1C(=O)O[C@H]1[C@@H]2OC(=O)[C@H](Cc3cccc(Br)c3)C/C=C/C[C@@H](Cc3cccc(Br)c3)C(=O)O[C@H]2[C@@H](OC)O[C@@H]1CO gave composite z-score of -0.0262

Given item CC(=O)c1ccc(C(O)C2C=CC3C(=O)N(C)C(=O)C3N2NC(=O)OC(C)(C)C)cc1 (stereo not given) , the value recorded as its composite z-score is 0.152

composite z-score for C=CC[C@]1(C(=O)NCc2ccccc2)COC(c2ccc(OCCCO)cc2)=N1 is -0.008

composite z-score reading for O=C(NCC(F)(F)F)[C@@H]1c2ccccc2C(=O)N(CC23CC4CC(CC(C4)C2)C3)[C@H]1c1ccc(CO)cc1 : -0.0549

According to the records, this molecule C=CCN1C(=O)[C@]2(O[C@H](CCO)[C@@H]([Si](C)(C)c3ccc(OC)cc3)[C@@H]2C)c2ccccc21 displays composite z-score of -0.144

Reported composite z-score of O=C1NC(=O)C2C1C=CC(C(O)c1cccc(O)c1)N2Nc1ccc(Cl)cc1Cl (stereo not given) : -0.161

Data point: [N-]=[N+]=NCc1ccccc1C[C@]1(C(=O)N2CCOCC2)N=C(c2ccc(OCCCO)cc2)O[C@H]1c1ccccc1CN=[N+]=[N-] ; composite z-score = 0.285

The value of composite z-score measured for the molecule C=CCC(OC(C)=O)[C@@H]1[C@@H](N(Cc2ccc(-c3cccc(C(F)(F)F)c3)o2)C(=O)Cc2ccc(F)cc2)c2cc(OCCCO)ccc2N1C(=O)c1ccc2ccccc2n1 (stereo not given in full) turned out to be -0.106

For record CCN(CC)c1ccc(N2CC=CC34O[C@@H]5C=CCOC(=O)[C@@H]5[C@H]3C(=O)N(CCCO)[C@@H]4C2=O)cc1 (stereo not given in full) the listed composite z-score is -0.062

Summary for this molecule, COC(=O)[C@@]1(Cc2ccc(F)cc2)[C@H]2c3cc(C(=O)N(C)C)n(CCO)c3C[C@H]2CN1C(=O)c1ccccc1 : composite z-score is 0.169

Sure, the documented composite z-score for CCOC(=O)C1=CC[C@@H](c2ccc(F)cc2)N(S(=O)(=O)c2ccc(C)cc2)[C@H]1c1ccc([N+](=O)[O-])cc1 is -0.0277
